// provenance: patent US20090111801A1

Target Under Test: hα2A receptor (Homo sapiens)
Construct: expressed in transfected cells; host or cells: CHO cells, stably transfected; membrane preparation
Sequence (P08913 whole entry): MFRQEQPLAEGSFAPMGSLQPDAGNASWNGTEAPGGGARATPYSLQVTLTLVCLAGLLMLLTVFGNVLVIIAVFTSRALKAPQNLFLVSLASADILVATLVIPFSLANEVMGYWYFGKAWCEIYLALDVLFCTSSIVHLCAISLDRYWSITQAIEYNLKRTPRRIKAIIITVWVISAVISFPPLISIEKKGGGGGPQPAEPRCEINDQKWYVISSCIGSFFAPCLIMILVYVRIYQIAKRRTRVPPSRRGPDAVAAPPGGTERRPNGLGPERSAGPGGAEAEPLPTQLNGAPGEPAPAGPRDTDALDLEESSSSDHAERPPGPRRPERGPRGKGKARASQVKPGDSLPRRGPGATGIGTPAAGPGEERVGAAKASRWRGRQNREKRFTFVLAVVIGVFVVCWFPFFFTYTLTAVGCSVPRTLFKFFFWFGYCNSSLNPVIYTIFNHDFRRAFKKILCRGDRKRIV
Assay Info: Radioligand binding experiment for α2A-adrenoceptor ([3H]raulwolscine, CHO cell membranes)
Assay Setup: [3H]raulwolscine binding, read-out: h-α2A pIC50 (converted)
Measure Name: IC50 (nM)

| Compound | Measurement |
| --- | --- |
| C/C(=C\c1ccccc1)CN1CCC(Nc2nccn(CCCNCc3ccccc3)c2=O)CC1 [1-46] | 39.8 |

a: C/C(=C\c1ccccc1)CN1CCC(Nc2nccn(CC(=O)N(C)CCc3ccccc3)c2=O)CC1 [1-61]
b: C/C(=C\c1ccccc1)CN1CCC(Nc2nccn(-c3ccc(N4CCCCC4)cc3)c2=O)CC1 [2-8]
c: C/C(=C\c1ccccc1)CN1CCC(Nc2nccn(-c3cccc(CNCC4CCCO4)c3)c2=O)CC1 (stereo not shown) [1-145]
Order the items by recorded IC50; the first position goes to the largest value. Hello, could you send the labels back in the order asked? Thank you.
a, b, c
(a: 100 nM, b: 39.8 nM, c: 20 nM)
